protocol_summary: Ex vivo biodistribution in normal mice
Design: species or system ddY mice
setup_conditions: i.v., 10 min after injection, mean (SD), 5 animals
Record form. Attribute: Biodistribution of radioactivity, Liver. Fill in for each entry.

Ask: // query Biodistribution of radioactivity, Liver value for entry CN(C)c1ccc(C2=N[O][99Tc-]3(=[O])([NH]2)[NH2+]C(c2ccc4nc(-c5ccc(N(C)C)cc5)sc4c2)=N[O]3)cc1 [[^99mTc]BT1B]
Result: 25.64 (6.77) % injected dose per gram

Ask: // lookup Biodistribution of radioactivity, Liver for CN(C)c1ccc(-c2nc3ccc(C4=N[O][99Tc-]5(=[O])([NH]4)[NH2+]C(c4ccc6nc(-c7ccc(N(C)C)cc7)sc6c4)=N[O]5)cc3s2)cc1 [[^99mTc]BT2B]
Result: 33.78 (6.07) % injected dose per gram

Ask: Returns the measured Biodistribution of radioactivity, Liver for the input compound. Input: CN(C)c1ccc(/C=C/c2ccc(C3=N[O][99Tc-]4(=[O])([NH]3)[NH2+]C(c3ccc(/C=C/c5ccc(N(C)C)cc5)cc3)=N[O]4)cc2)cc1 (single isomer, unassigned) [[^99mTc]SB2A]
Result: 29.35 (2.85) % injected dose per gram

Ask: Please look up its Biodistribution of radioactivity, Liver: CN(C)c1ccc(/C=C/c2ccc(C3=N[O][99Tc-]4(=[O])([NH]C(c5ccc(N(C)C)cc5)=N[O]4)[NH2+]3)cc2)cc1 (single isomer, unassigned) [[^99mTc]SB1A]
Result: 31.03 (2.29) % injected dose per gram

Entry source: paper PMC4867616
